Listing: melting point of selected molecules

>  <molecule>
COc1ccc(NC(=O)Nc2ccc(F)c(Cl)c2)cc1N1CCN(CC2COc3ccccc3O2)CC1.Cl (stereo not drawn)

>  <melting point>
120 to 130 °C

$$$$
>  <molecule>
Cc1ccc(NC(=O)Nc2ccc(C)c(NC3=NCCN3)c2)cc1Cl.Cl

>  <melting point>
252 to 254 °C

$$$$
>  <molecule>
Cc1ccc(NC(=O)Nc2cccc(C(C)C3=NCCN3)c2)cc1Cl.Cl (stereo not drawn)

>  <melting point>
100 to 102 °C

$$$$
>  <molecule>
COc1ccc(NC(=O)Nc2ccc(C)c(Cl)c2)cc1N1CCN(C)CC1.Cl

>  <melting point>
206 to 208 °C

$$$$
>  <molecule>
COc1ccc(NC(=O)Nc2ccc(C)c(Cl)c2)cc1N1CCN(CC2COc3ccccc3O2)CC1.Cl (stereo not drawn)

>  <melting point>
193 to 197 °C

$$$$
>  <molecule>
Cc1ccc(NC(=O)Nc2ccc3c(c2)C(c2c[nH]cn2)CCC3)cc1Cl.Cl (stereo not drawn)

>  <melting point>
255 to 257 °C

$$$$
